system: PXR homodimer (NR concentration 270 nM); experiment: PBM binding z-score (relative to random genomic background probes); higher = stronger binding; sequences stand for … in GC…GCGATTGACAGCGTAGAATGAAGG
outcome-measure: PBM binding z-score

* ATCGAAAGGGCGTGAGGTGAGTATACAGAAAGGC | 0.256
* CAAACTAGGTCACCAGGACAGTGAAGAGGTTGGA | 0.166
* CCGAGTAGGTTACGAGGGCGCATTCAGTGCGAAT | -0.379
* ATATGTAGGATATCGGGTCATTCAGTTTGCGCAT | 4.53
* TAGCCTAGGTCATTGTGCCAGTATAGTACGCATC | 0.0622
* CCGGGTAGGTTACGAGGGGGCATTCAGTGCGAAT | 4.47
* ATATGTGGGTTATCGGGTCATTCAGTTTGCGCAT | 7.1
* CCTAGTTGGTCAAGGTCACACATGCTATAGGTAC | 2.57
* CGTCCAAGGGCAATGCTAGGTCAGTGAAAGCATT | -0.135
* CCTAGTTGGTCAGGAGGTCACATACCGGATATGA | 1.16
* GCATACGGGTCAAAGGTTATAGCATGAATAGAAT | 0.519
* AGACAAAGTTCAGGACGAGGTAACGTAAAGCACG | 0.806

###

# reported PBM binding z-score; entries follow
system: PPARg DBDmut:RXRa IVT, anti-PPARg (DBD mutation: PPARg1 K132A/R137A, NR concentration 270 nM, RXRa partner concentration 90 nM); assay: PBM binding z-score (relative to random genomic background probes); higher = stronger binding; sequences stand for … in GC…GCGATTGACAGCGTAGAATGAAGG
outcome-measure: PBM binding z-score

- TGAATGAGGTTTAAGATCAGGGAACGTGGCGTCG: 0.0033
- CCTTACGGGTCAAGGTTATATCACGGGTGGTACG: 0.607
- GGAACGAGGGCATTCGAGTTGATAGCATGGCGAT: -0.045
- GATTCAGGGTCAGCTAGAGGCCAGAGTATGGAAA: 0.184
- CGTCCAACGTCAGCAGGTCAGTGAAAGCGACGTG: -0.345
- AAATGTAGGTTAAGGGTCATTCAGGTTGGTTCGC: 2.18
- CTCGAAAGGTCGTGCTCAGGTGAGTATGCCAAAC: 0.261
- GCTGCTAGGTCAGGTTGGTCAGCTAACGGGTACG: -0.747
- CGTCCAAGGTAAATGCTAGGTCAGTGAAAGCATT: -1.05
- ATCTGTAGGTTATCGGGTCATTCAGTTTGCGCAT: 1.81
- TAGCCTAGGTCATTCAGGGGCTAGTATAGAAAGC: -0.0413
- CCTACTGGGGCACGAAAGGTCATTGATTCAGTGA: 0.869

###

# reported PBM binding z-score; entries follow
system: LXRa homodimer (NR concentration 270 nM); test: PBM binding z-score (relative to random genomic background probes); higher = stronger binding; sequences stand for … in GC…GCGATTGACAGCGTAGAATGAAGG
outcome-measure: PBM binding z-score

• CTATGTAGGGTAAGGGGGTCATTCAGTTTGAAAG = 2.41
• CTATGTAGGTTAAGGTGGTCATTCAGTTTGAAAG = 0.413
• ATATGTAGCTTAAGGGTCATTCAGGTTGGTTCGC = 1.83
• CCGAGTAGGTTACGAGGGGGCATTCAATGCGAAT = 1.1
• CCGAGTAGGTTACGAGGGGGCATACAGTGCGAAT = 1.29
• TCTCGGAGGACACGAAAGGTCAGTGCTCGACATC = 3.24
• TCGATTAGGTTACGGGGGCATTCAGGGATGAAGA = 1.5
• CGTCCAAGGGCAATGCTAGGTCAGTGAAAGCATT = 0.414
• CGAACTTGGTCAAAGGACAGTGAAAGGCGACGTA = -0.799
• CGAACTAGGTAAAGGACAGTGAATCTCCGCACGC = -0.301
• CCTTACGGGTCACTCCAGGTTCTAGCATCGGAGT = 0.141
• CGAACTAGGTCAGAACAGGACATTGAAGGATGAT = 0.178
